Give EC50 for every item shown.
# EXPERIMENTAL SYSTEM: FPR2 (Homo sapiens)
# Sequence (P25090 whole entry, species assumed): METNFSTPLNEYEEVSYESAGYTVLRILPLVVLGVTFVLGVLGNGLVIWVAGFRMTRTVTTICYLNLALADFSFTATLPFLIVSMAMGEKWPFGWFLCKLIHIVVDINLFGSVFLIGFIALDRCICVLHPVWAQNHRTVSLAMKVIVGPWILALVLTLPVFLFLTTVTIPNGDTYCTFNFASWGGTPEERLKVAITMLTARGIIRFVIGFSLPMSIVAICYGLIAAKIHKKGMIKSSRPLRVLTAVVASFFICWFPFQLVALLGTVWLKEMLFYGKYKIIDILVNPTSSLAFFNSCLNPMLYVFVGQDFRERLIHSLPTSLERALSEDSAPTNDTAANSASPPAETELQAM
# MEASUREMENT PROTOCOL: Change in calcium activity by peptide (Fura-2) in RBL cells overexpressing FPR2
# MEASUREMENT CONTEXT: calcium activity (Fura-2), graded per Table 3, read-out: EC50 for [Ca^2+] FPR2
Peptide text beside a SMILES is read from it.

Q: Need EC50 of CCCC(=O)N[C@@H](CCSC)C(=O)N[C@@H](CCCCN)C(=O)N[C@@H](Cc1ccc(O)cc1)C(=O)N[C@@H](CCCCN)C(=O)N[C@H](C(=O)N[C@H](CCSC)C(N)=O)C(C)C [Peptide 19] (HELM PEPTIDE1{[CCCC(=O)[*:2]].M.K.Y.K.V.[dM].[am]}$$$$V2.0) , thanks.
Ans: < 10 nM

Q: Need EC50 of CSCC[C@H](NC(C)=O)C(=O)N[C@@H](CCCNC(=N)N)C(=O)N[C@@H](Cc1ccc(O)cc1)C(=O)N[C@@H](Cc1c[nH]c2ccccc12)C(=O)N[C@H](C(=O)N[C@H](CCSC)C(N)=O)C(C)C [Peptide 105] (HELM PEPTIDE1{[ac].M.R.Y.W.V.[dM].[am]}$$$$V2.0) , thanks.
Ans: < 10 nM

Q: Need EC50 of CCCC(=O)N[C@@H](Cc1c[nH]cn1)C(=O)N[C@@H](CCSC)C(=O)N[C@@H](CCCNC(=N)N)C(=O)N[C@@H](Cc1ccc(O)cc1)C(=O)N[C@@H](CCCCN)C(=O)N[C@@H](Cc1ccc(O)cc1)C(=O)N[C@H](CCSC)C(N)=O [Peptide 45] (HELM PEPTIDE1{[CCCC(=O)[*:2]].H.M.R.Y.K.Y.[dM].[am]}$$$$V2.0) , thanks.
Ans: < 10 nM

Q: Need EC50 of CSCC[C@H](NC(C)=O)C(=O)N[C@@H](CCCCN)C(=O)N[C@@H](Cc1ccc(O)cc1)C(=O)N[C@@H](CCCCN)C(=O)N1CCC[C@H]1C(=O)N[C@H](CCSC)C(N)=O [Peptide 71] (HELM PEPTIDE1{[ac].M.K.Y.K.P.[dM].[am]}$$$$V2.0) , thanks.
Ans: 11 to 100 nM

Q: Need EC50 of CCCCCCCC(=O)N[C@@H](CCCNC(=N)N)C(=O)N[C@@H](CCSC)C(=O)N[C@@H](CCCNC(=N)N)C(=O)N[C@@H](Cc1ccc(O)cc1)C(=O)N[C@@H](CCCCN)C(=O)N[C@H](C(=O)N[C@H](CCSC)C(N)=O)C(C)C [Peptide 8] (HELM PEPTIDE1{[CCCCCCCC(=O)[*:2]].R.M.R.Y.K.V.[dM].[am]}$$$$V2.0) , thanks.
Ans: 11 to 100 nM

Q: Need EC50 of CSCC[C@H](NC(C)=O)C(=O)N[C@@H](CCCCN)C(=O)N[C@@H](Cc1ccc(O)cc1)C(=O)N[C@@H](Cc1c[nH]c2ccccc12)C(=O)N1CCC[C@H]1C(=O)N[C@H](CCSC)C(N)=O [Peptide 114] (HELM PEPTIDE1{[ac].M.K.Y.W.P.[dM].[am]}$$$$V2.0) , thanks.
Ans: < 10 nM

Q: Need EC50 of CSCC[C@H](NC(C)=O)C(=O)N[C@@H](CCCNC(=N)N)C(=O)N[C@@H](Cc1ccc(O)cc1)C(=O)N[C@@H](CCCNC(=N)N)C(=O)N[C@@H](Cc1ccc(O)cc1)C(=O)N[C@H](CCSC)C(N)=O [Peptide 49] (HELM PEPTIDE1{[ac].M.R.Y.R.Y.[dM].[am]}$$$$V2.0) , thanks.
Ans: 11 to 100 nM

Q: Need EC50 of CSCC[C@H](NC(=O)[C@@H](N)CCCCN)C(=O)N[C@@H](CCCCN)C(=O)N[C@@H](Cc1ccc(O)cc1)C(=O)N[C@@H](CCCCN)C(=O)N1CCC[C@H]1C(=O)N[C@H](CCSC)C(N)=O [Peptide 66] (HELM PEPTIDE1{K.M.K.Y.K.P.[dM].[am]}$$$$V2.0) , thanks.
Ans: 11 to 100 nM

Q: Need EC50 of CSCC[C@@H](NC(=O)[C@H](Cc1ccc(O)cc1)NC(=O)[C@H](CC(C)C)NC(=O)[C@H](Cc1ccc(O)cc1)NC(=O)[C@H](CCCNC(=N)N)NC(=O)[C@H](Cc1c[nH]c2ccccc12)NC(=O)[C@@H](N)CCCNC(=N)N)C(N)=O [Peptide 154] (HELM PEPTIDE1{R.W.R.Y.L.Y.[dM].[am]}$$$$V2.0) , thanks.
Ans: < 10 nM

Q: Need EC50 of CCCC(=O)N[C@@H](CCCNC(=N)N)C(=O)N[C@@H](CCSC)C(=O)N[C@@H](CCCNC(=N)N)C(=O)N[C@@H](Cc1ccc(O)cc1)C(=O)N[C@@H](CCCCN)C(=O)N1CCC[C@H]1C(=O)N[C@H](CCSC)C(N)=O [Peptide 52] (HELM PEPTIDE1{[CCCC(=O)[*:2]].R.M.R.Y.K.P.[dM].[am]}$$$$V2.0) , thanks.
Ans: < 10 nM

Q: Need EC50 of CCCCCCCC(=O)N[C@@H](Cc1c[nH]cn1)C(=O)N[C@@H](CCSC)C(=O)N[C@@H](CCCCN)C(=O)N[C@@H](Cc1ccc(O)cc1)C(=O)N[C@@H](CCCCN)C(=O)N[C@H](C(=O)N[C@H](CCSC)C(N)=O)C(C)C [Peptide 24] (HELM PEPTIDE1{[CCCCCCCC(=O)[*:2]].H.M.K.Y.K.V.[dM].[am]}$$$$V2.0) , thanks.
Ans: < 10 nM

Q: Need EC50 of CSCC[C@H](NC(C)=O)C(=O)N[C@@H](CCCNC(=N)N)C(=O)N[C@@H](Cc1ccc(O)cc1)C(=O)N[C@@H](Cc1c[nH]c2ccccc12)C(=O)N1CCC[C@H]1C(=O)N[C@H](CCSC)C(N)=O [Peptide 111] (HELM PEPTIDE1{[ac].M.R.Y.W.P.[dM].[am]}$$$$V2.0) , thanks.
Ans: < 10 nM

Q: Need EC50 of CCCCCCCC(=O)N[C@@H](CCSC)C(=O)N[C@@H](CCCNC(=N)N)C(=O)N[C@@H](Cc1ccc(O)cc1)C(=O)N[C@@H](CCCCN)C(=O)N1CCC[C@H]1C(=O)N[C@H](CCSC)C(N)=O [Peptide 57] (HELM PEPTIDE1{[CCCCCCCC(=O)[*:2]].M.R.Y.K.P.[dM].[am]}$$$$V2.0) , thanks.
Ans: < 10 nM

Taken from patent US20250361268A1.
